Assign IC50 to each entry below.
# ASSAY TARGET: Transitional endoplasmic reticulum ATPase (Homo sapiens)
# ASSAY DETAILS: p97 ATPase inhibitors, SAR follow-up, biochemical, hit optimization round 2 (AID 488828)
# CONDITION PARAMETERS: purified p97 ATPase, Kinase-Glo ATP luminescence
The source made the active and inactive calls.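 The calls were made as follows: active = IC50 at or below 10 µM; inactive = the rest.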

Consider the following illustrative entries.
INSERT INTO results (molecule, reported_metric, result) VALUES
  ('Cc1ccc(CNc2nc(Nc3cccc(Cl)c3)nc3ccccc23)cc1', 'IC50', '1.4 µM'),
  ('Fc1ccc(CNc2nc(Nc3cccc(Cl)c3)nc3ccccc23)cc1', 'IC50', '1.5 µM'),
  ('Fc1cccc2nc(NCc3ccccc3)nc(NCc3ccccc3)c12', 'IC50', '1.2 µM');

Can you give me IC50 for all of these, one by one?
1. Cc1ccccc1CNc1nc(Nc2cccc(Cl)c2)nc2ccccc12
2. Fc1ccc(CNc2nc(Cl)nc3ccccc23)cc1
3. Clc1cccc2nc(NCc3ccccc3)nc(NCc3ccccc3)c12
4. Cc1ccc2c(NCc3ccccc3)nc(NCc3ccccc3)nc2c1
5. Clc1ccc2c(NCc3ccccc3)nc(NCc3ccccc3)nc2c1
6. COc1ccccc1CNc1nc(Cl)nc2ccccc12
7. c1ccc(CNc2nc(N3CCCc4ccccc43)nc3ccccc23)cc1

Result block:
4.2 µM
> 30 µM (inactive)
2.2 µM
2.2 µM
5.5 µM
> 30 µM (inactive)
4.4 µM

// batch mode: one IC50 value per listed entry
1. O=S(=O)(NC1CCCCC1)c1ccc(Br)cc1
2. Cc1ccc(Cl)cc1Nc1nc(NCc2ccccc2)c2ccccc2n1

Result block:
> 30 µM (inactive)
0.8 µM
